Molecular target: UniProtKB P14222
Sequence (whole entry): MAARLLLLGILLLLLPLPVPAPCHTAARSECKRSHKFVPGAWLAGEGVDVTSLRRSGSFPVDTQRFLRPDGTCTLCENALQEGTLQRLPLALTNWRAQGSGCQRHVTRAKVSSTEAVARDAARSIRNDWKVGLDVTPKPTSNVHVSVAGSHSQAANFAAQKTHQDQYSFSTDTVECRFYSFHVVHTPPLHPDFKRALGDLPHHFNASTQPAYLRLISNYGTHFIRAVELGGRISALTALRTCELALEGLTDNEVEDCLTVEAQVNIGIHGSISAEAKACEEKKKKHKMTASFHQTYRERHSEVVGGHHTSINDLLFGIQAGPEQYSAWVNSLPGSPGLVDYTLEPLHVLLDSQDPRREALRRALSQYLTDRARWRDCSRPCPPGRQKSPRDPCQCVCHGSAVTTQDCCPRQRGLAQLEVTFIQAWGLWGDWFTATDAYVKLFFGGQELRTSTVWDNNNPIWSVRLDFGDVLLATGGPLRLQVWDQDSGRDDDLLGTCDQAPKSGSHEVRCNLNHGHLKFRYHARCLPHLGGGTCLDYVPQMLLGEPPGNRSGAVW
Assay: Inhibition of perforin-dependent cell killing activity of human KHYG-1 cells assessed as reduction in cytotoxicity against K562 cells preincubated for 20 mins followed by 51Cr labelled K562 cells addition and measured after 4 hrs by gamma counter analysis
Assay type: cell-based
Conditions: time 260.0 min
So I've got a bunch of compounds here, and I need their IC90 values.
Return type: number; implicit unit nM.

Look at this compound and give its reported IC90. Cc1cc2c(cc1-c1cnc(N)nc1)S(=O)(=O)c1ccc(C(N)=O)cc1CC2C (stereo not given)
40

Return reported IC90; argument: `Cc1ccc(S(=O)(=O)c2ccc3c(c2)CCN3)cc1-c1cnc(N)nc1`
30

Given `Cc1ccc(S(=O)(=O)c2ccc3c(c2)CCNC3=O)cc1-c1cnc(N)nc1` , state its recorded IC90.
40

Return reported IC90; argument: `Cc1ccc(S(=O)(=O)c2ccc3[nH]ncc3c2)cc1-c1cnc(N)nc1`
281

IC90 for `CCNc1ccc(S(=O)(=O)c2ccc(C)c(-c3cnc(N)nc3)c2)c(C(F)(F)F)c1` ?
31

Which IC90 reading was recorded for the compound `Cc1ccc(S(=O)(=O)c2ccc(N)cc2)cc1-c1cccnc1` ?
43000

Name the reported IC90 value associated with the compound `Cc1ccc(NS(=O)(=O)c2ccc(N)cc2C(F)(F)F)cc1-c1cnc(N)nc1`
1900

Query (compound): `Cc1ccc(S(=O)(=O)c2ccc(N)cc2)cc1-c1cnc(N)nc1` ; field requested: IC90
3400

src = ChEMBL document CHEMBL5335787
